These data points were gathered from paper PMC10673308.

- Test system: oxidase II (laccase-like oxidase II of C. geniculata VKM F-3561)
- Construct: native, purified from culture liquid; glycosylated oligomer about 870 kDa, subunit about 63 kDa deglycosylated
- procedure_summary: spectrophotometric oxidation assay
- Format: biochemical, Curvularia geniculata
- condition: apparent; 50 mM Tris-HCl buffer pH 7.2; error < 10%
observation_type: Km (µM)

| smiles_text | observation_type | recorded_measurement |
| --- | --- | --- |
| COc1cc(/C=C/CO)ccc1O | Km | 125 |
| COc1cc(C=NN=Cc2cc(OC)c(O)c(OC)c2)cc(OC)c1O | Km | 46 |
| COc1cccc(OC)c1O | Km | 108 |
| COc1cc(/C=C/C(=O)O)ccc1O | Km | 51 |

* * *

- Test system: oxidase I (laccase-like oxidase I of C. geniculata VKM F-3561)
- Construct: native, purified from culture liquid; glycosylated oligomer about 1035 kDa, subunit about 63 kDa deglycosylated
- procedure_summary: spectrophotometric oxidation assay
- Type: biochemical, Curvularia geniculata
- condition: apparent; 50 mM Tris-HCl buffer pH 7.2; error < 10%
- From the text: spectrophotometric oxidation assay on oxidase I (laccase-like oxidase I of C. geniculata VKM F-3561)
Listing: Km of selected compounds

| smiles_text | Km / µM |
| --- | --- |
| COc1cc(/C=C/C(=O)O)ccc1O | 37.6 |
| COc1cc(C=NN=Cc2cc(OC)c(O)c(OC)c2)cc(OC)c1O | 2.3 |
| COc1cccc(OC)c1O | 26 |
| COc1cc(/C=C/CO)ccc1O | 130 |
